testTarget: Potassium voltage-gated channel subfamily KQT member 2 (Rattus norvegicus)
experimentalDetails: KCNQ2 blockade in CHO cells – cell-based, FluxOR thallium flux, counter-screen for hERG block protector project, confirmation (AID 1946)
experimentalParameters: FluxOR thallium flux fluorescence, at 10 µM, hits give low values, zero marks the 3-SD hit cutoff
The whole screen tested about 2,400 compounds, of which about 180 (7.5%) were called active. Only a selection was taken, and actives are over-represented in it overall.
activity change vs negative control strictly less than 10% = 1 (yes). Otherwise 0 (no).

Req: Take the compound "COC(=O)Cn1c(=O)c(=O)n(CC(=O)OC)c2ccccc21" and say whether its activity change vs negative control is less than 10%.
Resp: 1 (yes)

Req: Decide: activity change vs negative control of "CC(C)NC(=O)Nc1n[nH]c(Nc2ccc(Cl)cc2)n1" strictly below 10%?
Resp: 0 (no)

Req: Is the reported activity change vs negative control for "COc1ccc(OC(=O)Cc2cccc3ccccc23)cc1" strictly below 10%?
Resp: 0 (no)

Req: Field: below-cutoff. Rule: recorded activity change vs negative control strictly less than 10%. Subject: "O=C(NC(=S)NCc1ccccc1)c1ccc(Br)o1"
Resp: 0 (no)

Req: Dear reviewer, please state whether "COc1ccc(/C=C/C(=O)Nc2ccccc2C(=O)O)cc1" has activity change vs negative control strictly beneath 10%.
Resp: 0 (no)

Req: Is activity change vs negative control strictly under 10% for the entry "CN(Cc1ccsc1)C(=O)CCc1nnc(Cc2c[nH]c3ccccc23)o1" ?
Resp: 0 (no)

Req: Please check: activity change vs negative control for "Cc1ccc(C(=O)c2ccccc2C(=O)O)c(O)c1" , strictly under 10% or not?
Resp: 1 (yes)

Req: Would you kindly verify if activity change vs negative control of "Cc1cccc(NC(=S)NC(=O)c2ccc(Br)o2)c1" is strictly less than 10%?
Resp: 0 (no)

More entries:
Req: Item Cc1ccc(C(C#N)c2ccc3c(C(F)(F)F)cc(C(F)(F)F)nc3n2)cc1 (centres undefined) : activity change vs negative control beneath 10%, strictly?
Resp: 0 (no)

Req: Bench note: check whether "Cc1ccccc1C(=O)c1cn[nH]c1-c1ccccc1O" shows activity change vs negative control below 10%
Resp: 1 (yes)

Req: Find out if reported activity change vs negative control for "Cc1c(C(=O)NNC(=O)c2ccncc2)oc2ccc(Br)cc12" is less than 10%
Resp: 1 (yes)

Req: Hello, I'm reviewing records and need to know if activity change vs negative control of "CCOC(=O)c1nnn(CC(=O)Nc2ccccc2OC)c1C(=O)OCC" is below 10%. Could you check?
Resp: 1 (yes)

---

testTarget: Potassium voltage-gated channel subfamily KQT member 2 (Rattus norvegicus) (UniProt O88943)
Sequence (O88943 whole entry, looked up): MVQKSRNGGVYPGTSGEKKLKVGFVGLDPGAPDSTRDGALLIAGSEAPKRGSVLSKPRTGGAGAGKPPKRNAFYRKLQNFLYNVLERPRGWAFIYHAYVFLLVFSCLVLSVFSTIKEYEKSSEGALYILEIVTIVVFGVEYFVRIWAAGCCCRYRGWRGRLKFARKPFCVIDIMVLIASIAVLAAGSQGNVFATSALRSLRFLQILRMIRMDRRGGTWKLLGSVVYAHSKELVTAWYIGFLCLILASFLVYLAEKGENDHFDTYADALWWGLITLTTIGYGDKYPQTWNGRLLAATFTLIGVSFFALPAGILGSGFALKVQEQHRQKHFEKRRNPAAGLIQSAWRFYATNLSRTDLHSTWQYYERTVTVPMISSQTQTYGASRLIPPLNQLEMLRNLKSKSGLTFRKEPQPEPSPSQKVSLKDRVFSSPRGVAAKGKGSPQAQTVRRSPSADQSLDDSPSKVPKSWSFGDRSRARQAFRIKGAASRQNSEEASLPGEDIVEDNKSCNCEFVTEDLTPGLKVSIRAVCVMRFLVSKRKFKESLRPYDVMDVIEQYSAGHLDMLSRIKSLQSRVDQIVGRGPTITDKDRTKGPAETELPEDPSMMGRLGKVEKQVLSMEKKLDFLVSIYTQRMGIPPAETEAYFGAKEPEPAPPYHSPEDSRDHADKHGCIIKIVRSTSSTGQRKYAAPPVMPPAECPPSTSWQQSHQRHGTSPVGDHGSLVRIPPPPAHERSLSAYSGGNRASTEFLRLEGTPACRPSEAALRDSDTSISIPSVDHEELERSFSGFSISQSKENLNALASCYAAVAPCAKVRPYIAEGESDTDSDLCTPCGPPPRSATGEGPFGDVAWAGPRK
experimentalDetails: KCNQ2 blockade in CHO cells – cell-based, FluxOR thallium flux, counter-screen for hERG block protector project, confirmation (AID 1946)
experimentalParameters: FluxOR thallium flux fluorescence, at 10 µM, hits give low values, zero marks the 3-SD hit cutoff
Hit rate of the full screen: of about 2,400 compounds, about 180 (7.5%) were called active. This is one part of a sample in which actives are shown more often than they occur.
propertyName: activity change vs negative control (%)
Numbers only, in %.

Previously resolved entries follow.
Item: "COc1ccc(-c2cc(C(=O)N3CCCC3)no2)cc1OC" | activity change vs negative control: 24

For "Cc1cccnc1NC(=O)c1csnn1" the compound record lists activity change vs negative control as 14.2

Form field activity change vs negative control, entry "CC(C)CNC(=S)NC(=O)c1ccc(Cl)cc1" : 10.6

Record summary for Cc1ccc(-n2ncc3c2CCCC3NC(=O)c2csnn2)cc1C (stereo unspecified) : reported activity change vs negative control = -1.1

Measured activity change vs negative control of Cc1cc(C)cc(-n2ncc3c2CCCC3NC(=O)c2csnn2)c1 (stereo unspecified) : -0.8

Briefly, activity change vs negative control measured for "Cc1cc(OCc2ccc(C(=O)Nc3ccc(C(=O)O)cc3)o2)ccc1Cl" : 5.6

The reported value for COc1ccc(-n2ncc3c2CC(C)(C)CC3NC(=O)c2cn[nH]c2)cc1 (stereo unspecified) in terms of activity change vs negative control is 0.2

activity change vs negative control for "O=C(N/N=C/c1cc([N+](=O)[O-])ccc1O)c1ccc(COc2ccc3c(c2)CCC3)o1" is -19.7

Field: activity change vs negative control. Fill in for each record below.
1. S=c1nc(COc2ccccc2)[nH]c2ccccc12
2. O=C(Nc1cccc(N=Cc2cc(Cl)cc(Br)c2O)c1)c1ccco1
3. CCOc1ccc(C(=O)N/N=C/c2cc([N+](=O)[O-])cs2)cc1

Resp:
1. 159
2. 53.8
3. 5.6

---

testTarget: Potassium voltage-gated channel subfamily KQT member 2 (Rattus norvegicus)
experimentalDetails: KCNQ2 blockade in CHO cells – cell-based, FluxOR thallium flux, counter-screen for hERG block protector project, confirmation (AID 1946)
experimentalParameters: FluxOR thallium flux fluorescence, at 10 µM, zero marks the 3-SD hit cutoff
Hit rate of the full screen: of about 2,400 compounds, about 180 (7.5%) were called active.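 Rule for the calls: active = readout below zero, meaning a drop past 3 SD under the dofetilide-free negative control mean; inactive = the rest.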 The entries come from a sample that favours actives as a whole.
Please reply with one of these outcomes: active, inactive

Worked examples follow.
Req: In this assay, the call recorded for "COc1ccc(/C=C2\SC(=N)N(c3nccs3)C2=O)cc1OC" was what?
Resp: inactive

Req: Check the results log: what was the call for "NC(=O)c1nsc(C(=O)N(CC(=O)NCc2ccccc2)c2ccc(F)cc2)c1N" ?
Resp: active

Req: Fill in: this test's call for "CCNC(=O)C/C(C)=N/NC(=O)C(=O)Nc1ccc(CC)cc1" is ___
Resp: inactive

Req: Assay result, entry "COc1ccc(/C=C2\SC(c3ccc(C)cc3)=NC2=O)cc1OC" — outcome?
Resp: active

Req: Short answer needed: outcome of this test for "COc1ccccc1C(=O)NNC(=O)C(=O)Nc1ccc(C)c(Cl)c1" ?
Resp: inactive

Req: Recorded test call requested for "S=c1[nH]cnc2scc(-c3ccccc3)c12"
Resp: inactive

Others:
Req: I would be grateful if you could indicate the recorded call for "COc1cccc2cc(-c3nc4ccccc4[nH]3)c(=O)oc12" .
Resp: active

Req: // param item: "CN1C(=O)/C(=N/OC(=O)c2ccccc2)c2ccccc21" ; yields the recorded call
Resp: inactive

Req: Each molecule tested received a call. Report the one for "Cn1c(=O)c2sccc2n(Cc2cccc(Br)c2)c1=O" .
Resp: inactive

Req: For this molecule, state the assay outcome: "COc1cc(/C=C/C(=O)O)ccc1OS(=O)(=O)c1cc(C)ccc1C"
Resp: inactive

Req: // outcome(item) with item = "Cn1cc(/C=N/n2cnc3scc(-c4ccc(Cl)cc4)c3c2=O)c2ccccc21"
Resp: inactive

---

testTarget: Potassium voltage-gated channel subfamily KQT member 2 (Rattus norvegicus)
experimentalDetails: KCNQ2 blockade in CHO cells – cell-based, FluxOR thallium flux, counter-screen for hERG block protector project, confirmation (AID 1946)
experimentalParameters: FluxOR thallium flux fluorescence, at 10 µM, zero marks the 3-SD hit cutoff
The whole screen tested about 2,400 compounds, of which about 180 (7.5%) were called active.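 The calls were made as follows: active = readout below zero, meaning a drop past 3 SD under the dofetilide-free negative control mean; inactive = the rest.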 This is one part of a sample in which actives are shown more often than they occur.
Pick one and only one: 1 for active, 0 for inactive

Req: Outcome logged for "COc1ccc(Cn2c(O)cc(=O)[nH]c2=O)cc1" in this assay:
Resp: 0

Req: # lookup: test call for "COc1cc(-c2nnc(SCC(=O)O)n2-c2ccccc2)cc(OC)c1OC"
Resp: 0

Req: Dear all, I need the recorded test outcome for "Cc1cc(F)c(F)c(C(=O)N2CCOCC2)c1" , thank you.
Resp: 0

Req: Lab log entry: "Cc1ccc(-n2c(C)cc(C(=O)CN3CCOCC3)c2C)cc1" — outcome as called in the assay?
Resp: 0

Req: So what was the verdict on "Cc1cc(C(=O)NP(=O)(N2CCOCC2)N2CCOCC2)c(C)n1-c1ccc(Br)cc1" in this test?
Resp: 1

---
Req: // outcome(item) with item = "COc1ccc(-n2c(=S)[nH]c3ccccc3c2=S)cc1"
Resp: 0

Req: How was "Cc1ccc(NC(=O)CSc2nnc(-c3cccnc3)n2-c2ccc(C)cc2)cc1" classified in this test?
Resp: 0

Req: Which outcome was assigned to "COc1ccc(-n2c(O)c(/C=C3\C=Nc4ccccc43)c(=O)[nH]c2=O)cc1" in this test?
Resp: 1

Req: For this compound, state the assay outcome: "COc1ccc(-n2c(SCC#N)nnc2-c2cccnc2)cc1"
Resp: 1

Req: Status in this test for "O=C(NC(=S)N1CCc2ccccc21)c1ccccc1Br" ?
Resp: 0

Req: What is the recorded call for this compound in the test? Cc1ccc(S(=O)(=O)N(C)C)cc1NC(=S)NC(C)CCCC(C)C (stereo unspecified)
Resp: 1

---

testTarget: Potassium voltage-gated channel subfamily KQT member 2 (Rattus norvegicus)
experimentalDetails: KCNQ2 blockade in CHO cells – cell-based, FluxOR thallium flux, counter-screen for hERG block protector project, confirmation (AID 1946)
experimentalParameters: FluxOR thallium flux fluorescence, at 10 µM, zero marks the 3-SD hit cutoff
In all, about 2,400 compounds went through this assay and about 180 (7.5%) were called active.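 How the source made its calls: active means readout below zero, meaning a drop past 3 SD under the dofetilide-free negative control mean; inactive means the rest.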 Shown is part of a subset that was picked to be rich in actives.
Permitted responses: t = active, f = inactive

Req: I would be grateful if you could indicate the recorded call for "CC1=CC(=O)C(C(C)C)=CC1=NC(=O)c1ccc(C)cc1" .
Resp: t

Req: Test call, this compound: "Cc1ccc(C(=O)Sc2cccccc2=O)cc1"
Resp: f

Req: Could you check what this test reported for "Cc1ccc(/C(O)=C/C(=O)C(=O)NC23CC4CC(CC(C4)C2)C3)cc1" ?
Resp: f

Req: Per the assay record, what outcome was assigned to "COc1ccc(CCNC(=O)C(=O)Nc2ccc3c(c2)OCO3)cc1OC" ?
Resp: f

Req: GET /call?item= "CCN(C(=S)NC(=O)c1ccccc1Br)C1CCCCC1" returns the recorded outcome of this test.
Resp: f

API: the following record is the query input.
Req: Just curious, what result did "CN(C(=S)NC(=O)c1ccc(Cl)cc1)C1CCCCC1" get here?
Resp: f
